- MEASUREMENT TARGET: human muscarinic M3 receptor (Homo sapiens (Human), UniProt P20309)
- Sequence (P20309 whole entry): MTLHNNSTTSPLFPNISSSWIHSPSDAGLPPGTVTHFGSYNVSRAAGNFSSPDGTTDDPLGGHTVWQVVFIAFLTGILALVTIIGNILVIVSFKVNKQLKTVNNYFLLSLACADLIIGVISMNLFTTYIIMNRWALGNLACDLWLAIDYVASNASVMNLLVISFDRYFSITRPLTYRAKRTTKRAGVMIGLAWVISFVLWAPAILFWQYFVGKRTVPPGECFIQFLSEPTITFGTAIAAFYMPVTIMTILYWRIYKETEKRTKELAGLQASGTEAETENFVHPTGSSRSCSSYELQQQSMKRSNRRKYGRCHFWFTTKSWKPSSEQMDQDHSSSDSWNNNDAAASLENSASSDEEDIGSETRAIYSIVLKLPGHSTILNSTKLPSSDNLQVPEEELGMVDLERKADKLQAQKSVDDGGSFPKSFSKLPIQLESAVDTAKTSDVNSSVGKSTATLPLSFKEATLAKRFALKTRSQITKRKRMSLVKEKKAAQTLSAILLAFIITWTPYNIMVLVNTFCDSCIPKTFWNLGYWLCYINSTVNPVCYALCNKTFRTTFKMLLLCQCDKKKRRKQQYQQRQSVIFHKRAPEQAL
- ASSAY SUMMARY: Binding assay on human muscarinic M3 receptor ([3H]-methyl scopolamine displacement)
- RUN PARAMETERS: membranes overexpressing human M3 receptor, Ki from IC50 by Cheng-Prusoff, read-out: Binding Affinity to M3 Receptor, Ki
READOUT KIND: Ki (nM)
Field: numeric (nM). Do not append units.

Sample records with Ki:
- MOLECULE: "COc1cc(Cl)cc(-c2cc(F)ccc2NC(=O)OC[C@@H]2CCN(C)C2)c1"
  VALUE MEASURED: 82.7
- MOLECULE: "CN1CCCC1CCOC(=O)Nc1ccc(Cl)cc1-c1cc(Cl)cc(Cl)c1 (stereo not drawn)"
  VALUE MEASURED: 134
- MOLECULE: "CN1CCCC1CCOC(=O)Nc1ccc(F)cc1-c1cccc(N)c1 (stereo not drawn)"
  VALUE MEASURED: 37.5
- MOLECULE: "CN1CCCC1CCOC(=O)Nc1ccccc1-c1c(F)cccc1F (stereo not drawn)"
  VALUE MEASURED: 46.1
- MOLECULE: "Cc1cccc(-c2ccccc2NC(=O)OC[C@H]2CCN(C)C2)c1"
  VALUE MEASURED: 3.79
- MOLECULE: "COc1cc(Cl)cc(-c2cc(F)ccc2NC(=O)OC[C@@H]2CCCN2C)c1"
  VALUE MEASURED: 223
- MOLECULE: "COc1ccc(NC(=O)OCCC2CCCN2C)c(-c2cccc(Cl)c2)c1 (stereo not drawn)"
  VALUE MEASURED: 58.1
- MOLECULE: "Cc1ccc(NC(=O)OC[C@@H]2CCCN2C)c(-c2cccc(F)c2)c1"
  VALUE MEASURED: 13.4
- MOLECULE: "CN1CCC[C@H]1COC(=O)Nc1ccccc1-c1ccc(Cl)cc1Cl"
  VALUE MEASURED: 67.3
- MOLECULE: "CN1CCCC1CCOC(=O)Nc1ccc(F)cc1-c1cc(Cl)cc(Cl)c1 (stereo not drawn)"
  VALUE MEASURED: 38.8

Input line: What does the record list as Ki for Cc1cccc(-c2ccccc2NC(=O)OCCC2CCCN2C)c1 (stereo not drawn) ?
Output line: 2.27

Input line: // next record CN1CCCC1CCOC(=O)Nc1ccc(F)cc1-c1cc(F)cc(Cl)c1 (stereo not drawn)
Output line: 10

Input line: Now the molecule "CN1CC[C@@H](COC(=O)Nc2ccccc2-c2ccccc2F)C1"
Output line: 10.6

Input line: Same thing, different molecule: CN1CCCC1CCOC(=O)Nc1ccccc1-c1ccc(F)c(C(F)(F)F)c1 (stereo not drawn)
Output line: 574

Input line: Next molecule up: CN1CCCC1CCOC(=O)Nc1ccc(Cl)cc1-c1cc(F)cc(Cl)c1 (stereo not drawn)
Output line: 58.8

---

Each record here notes measured pKi.
- MEASUREMENT TARGET: human muscarinic M3 receptor (Homo sapiens (Human), UniProt P20309)
- ASSAY SUMMARY: Binding assay on human muscarinic M3 receptor ([3H]-methyl scopolamine displacement)
- RUN PARAMETERS: membranes overexpressing human M3 receptor, Ki from IC50 by Cheng-Prusoff, read-out: Binding Affinity to M3 Receptor, Ki
# pKi = -log10(concentration in molar units)

Examples from the recorded data:
- COMPOUND: "CN1CC[C@H](COC(=O)Nc2ccc(F)cc2-c2ccccc2)C1 [Example 93]"
  MEASUREMENT TARGET: "human muscarinic M3 receptor (Homo sapiens (Human), UniProt P20309)"
  VALUE MEASURED: 8.39
- COMPOUND: "CN1CCC[C@H]1COC(=O)Nc1ccccc1-c1cc(Cl)ccc1F [Example 190]"
  MEASUREMENT TARGET: "human muscarinic M3 receptor (Homo sapiens (Human), UniProt P20309)"
  VALUE MEASURED: 8.66

Input line: Find the measured pKi: item CN1CC[C@H](COC(=O)Nc2ccc(F)cc2-c2ccc(Cl)c(Cl)c2)C1 [Example 128] , target or system human muscarinic M3 receptor (Homo sapiens (Human), UniProt P20309).
Output line: 8.47

Input line: And CN1CC[C@H](COC(=O)Nc2ccc(F)cc2-c2cc(Cl)cc(Cl)c2)C1 [Example 126] ?
Output line: 7.61

---

- MEASUREMENT TARGET: human muscarinic M3 receptor (Homo sapiens (Human))
- ASSAY SUMMARY: Binding assay on human muscarinic M3 receptor ([3H]-methyl scopolamine displacement)
- RUN PARAMETERS: membranes overexpressing human M3 receptor, Ki from IC50 by Cheng-Prusoff, read-out: Binding Affinity to M3 Receptor, Ki
- Procedure: [Experimental Example 1] Binding Assay on Human Muscarinic M3 Receptor Cell membrane proteins (Perkin Elmer) wherein human muscarinic M3 receptor was overexpressed, [^3H]-methyl scopolamine and test compounds in various concentration were cultured in 0.2 ml of Tris-HCl buffer at 25° C. for 120 minutes. […] The radioactivity of [^3H]-methyl scopolamine adsorbed on the filter was measured by a liquid scintillation counter. Non-specific binding was evaluated under existence of 5 μM of atropine. […]
READOUT KIND: Ki (nM)
Respond with the bare value in nM.

Field: example entries. Status: answers known.
- COMPOUND: "CN1CCC[C@H]1COC(=O)Nc1ccccc1-c1cccc(F)c1"
  MEASUREMENT TARGET: "human muscarinic M3 receptor (Homo sapiens (Human))"
  Ki [nM]: 4.29
- COMPOUND: "CN1CC[C@@H](COC(=O)Nc2ccccc2-c2ccc(F)c(F)c2)C1"
  MEASUREMENT TARGET: "human muscarinic M3 receptor (Homo sapiens (Human))"
  Ki [nM]: 7.49
- COMPOUND: "CN1CCCC1CCOC(=O)Nc1ccccc1-c1cccc(F)c1F (centres unmarked)"
  MEASUREMENT TARGET: "human muscarinic M3 receptor (Homo sapiens (Human))"
  Ki [nM]: 63.5
- COMPOUND: "CN1CCCC1CCOC(=O)Nc1ccc(F)cc1-c1ccc(F)cc1 (centres unmarked)"
  MEASUREMENT TARGET: "human muscarinic M3 receptor (Homo sapiens (Human))"
  Ki [nM]: 4.17
- COMPOUND: "Cc1cc(C)cc(-c2cc(F)ccc2NC(=O)OC[C@H]2CCN(C)C2)c1"
  MEASUREMENT TARGET: "human muscarinic M3 receptor (Homo sapiens (Human))"
  Ki [nM]: 87.8

Input line: Returns the measured Ki for the input compound. Input: "CN1CC[C@@H](COC(=O)Nc2ccc(F)cc2-c2ccccc2F)C1"
Output line: 17.2

Input line: Same question, CN1CCCC1CCOC(=O)Nc1ccc(C(F)(F)F)cc1-c1ccc(F)cc1 (centres unmarked) this time
Output line: 258

---

- MEASUREMENT TARGET: human muscarinic M3 receptor (Homo sapiens (Human), UniProt P20309)
- ASSAY SUMMARY: Antagonism assay on human muscarinic M3 receptor (carbachol-induced intracellular calcium, FLIPR Calcium 5, transfected Cos-7 cells)
- Type: cell-based
- RUN PARAMETERS: functional inhibitory constant; carbachol-induced intracellular calcium in Cos-7 cells transfected with human M3 receptor
READOUT KIND: Ki (nM)
# value in nM; strip the unit string

Known Ki results, listed for orientation:
- COMPOUND: "CN1CC[C@@H](COC(=O)Nc2ccccc2-c2ccc(Cl)c(Cl)c2)C1"
  MEASUREMENT TARGET: "human muscarinic M3 receptor (Homo sapiens (Human), UniProt P20309)"
  READOUT KIND: "Ki"
  VALUE MEASURED: 1.14
- COMPOUND: "CN1CC[C@@H](COC(=O)Nc2ccc(F)cc2-c2cc(Cl)cc(Cl)c2)C1"
  MEASUREMENT TARGET: "human muscarinic M3 receptor (Homo sapiens (Human), UniProt P20309)"
  READOUT KIND: "Ki"
  VALUE MEASURED: 16.5
- COMPOUND: "CCN1CC[C@@H](COC(=O)Nc2ccc(F)cc2-c2ccc(F)c(Cl)c2)C1"
  MEASUREMENT TARGET: "human muscarinic M3 receptor (Homo sapiens (Human), UniProt P20309)"
  READOUT KIND: "Ki"
  VALUE MEASURED: 1.54

Input line: // query Ki value for entry CN1CCCC1CCOC(=O)Nc1ccc(F)cc1-c1ccccc1 (stereo not drawn)
Output line: 0.49

Input line: Entry CN1CCCC1CCOC(=O)Nc1ccccc1-c1ccc(F)c(Cl)c1 (stereo not drawn) please
Output line: 0.18

Input line: What about CN1CCCC1CCOC(=O)Nc1ccc(Cl)cc1-c1cccc(Cl)c1 (stereo not drawn) ?
Output line: 1.95

Input line: Could you do the same for "CN1CCC[C@H]1COC(=O)Nc1ccccc1-c1ccc(F)cc1F" , please?
Output line: 2.23

---

- MEASUREMENT TARGET: human muscarinic M3 receptor (Homo sapiens (Human), UniProt P20309)
- ASSAY SUMMARY: Binding assay on human muscarinic M3 receptor ([3H]-methyl scopolamine displacement)
- RUN PARAMETERS: membranes overexpressing human M3 receptor, Ki from IC50 by Cheng-Prusoff, read-out: Binding Affinity to M3 Receptor, Ki
pKi: −log10 of the molar value.
Using pKi as the sorting value, the categories are 0 (below 7), 1 (7 to below 8), 2 (8 or more)

- COMPOUND: "Cc1ccc(NC(=O)OCCC2CCCN2C)c(-c2ccccc2)c1 (stereo not shown)"
  CLASS ASSIGNMENT: 1
- COMPOUND: "CN1CCC[C@H]1COC(=O)Nc1cc(F)ccc1-c1ccccc1"
  CLASS ASSIGNMENT: 2
- COMPOUND: "CN1CC[C@@H](COC(=O)Nc2ccccc2-c2cc(F)cc(Cl)c2)C1"
  CLASS ASSIGNMENT: 2
- COMPOUND: "CN1CCCC1CCOC(=O)Nc1ccccc1-c1ccc(F)c(Cl)c1 (stereo not shown)"
  CLASS ASSIGNMENT: 2
- COMPOUND: "O=C(Nc1ccc(F)cc1-c1ccccc1)OC[C@H]1CCNC1"
  CLASS ASSIGNMENT: 1
- COMPOUND: "CN1CC[C@@H](COC(=O)Nc2ccccc2-c2cccc(Cl)c2)C1"
  CLASS ASSIGNMENT: 2
- COMPOUND: "CN1CCCC1CCOC(=O)Nc1ccccc1-c1ccc(N)c(Cl)c1 (stereo not shown)"
  CLASS ASSIGNMENT: 1
- COMPOUND: "CN1CCC[C@H]1COC(=O)Nc1ccc(F)cc1-c1cccc(Cl)c1"
  CLASS ASSIGNMENT: 2

Please turn your attention to the following entry.
Input line: Tag the class for "CN1CCC[C@H]1COC(=O)Nc1ccc(F)cc1-c1cccc(C(F)(F)F)c1F"
Output line: 0
